- assay: qHTS assay for cell viability of the p53RE-bla HCT-116 cell line (AID 743292); note: nearly all actives have a fitted effect of over 55% in size
- stated-conditions: p53RE-bla HCT-116 viability, ATP luminescence, 16 h; series mostly up to 95 µM
Inconclusive results are not listed. Activity calls are given as the source filed them. Calls come from the whole dose curve; as a rule, active = well fitted cell-killing curve with a large enough effect; inconclusive = small, poorly fitted or top-dose-only effect, or effect the other way; inactive = flat fitted curve, though single readings scatter.
Respond with a class label; see active, inactive

Solved cases below.
CCCc1c(OCCCOc2ccc(OCC(=O)O)cc2)ccc(C(C)=O)c1O | inactive
CCCCCCCCCCCCCCSCC(=O)O | inactive
NC(=O)c1ccccc1 | inactive
CCCc1c(-c2ccc(O)cc2)nn(-c2ccc(O)cc2)c1-c1ccc(O)cc1 | active

Now consider a different compound.
Q. Record lookup: outcome of this test for CC1=C(/C=C/C(C)=C/C=C/C(C)=C\C(=O)O)C(C)(C)CCC1 ?
A. inactive
